meta.source: patent US20030032813A1

Reported melting point is given for each of the following compounds.

Examples with answers:
[[record]]
compound = "COc1ccc(C=C2SC(=S)N(CC(=O)O)C2=O)cc1C"
quantity_measured = "melting point"
measurement = "235 to 236 °C"

[[record]]
compound = "COc1cccc(C=C2SC(=S)N(CC(=O)O)C2=O)c1"
quantity_measured = "melting point"
measurement = "193 to 196 °C"

[[record]]
compound = "CC(C)(C)c1cc(C=C2SC(=S)N(CC(=O)O)C2=O)cc(C(C)(C)C)c1O [Example 25]"
quantity_measured = "melting point"
measurement = "120 to 121 °C"

[[record]]
compound = "COc1cc(C=C2SC(=S)N(CC(=O)O)C2=O)cc(OC)c1O"
quantity_measured = "melting point"
measurement = "238 to 240 °C"

[[record]]
compound = "O=C(O)CCN1C(=O)C(=Cc2ccc(OCc3ccccc3)cc2)SC1=S"
quantity_measured = "melting point"
measurement = "188 to 191 °C"


Qu. What value of measured melting point is listed for O=C(O)CCN1C(=O)C(=Cc2ccc3c(c2)OCO3)SC1=S ?
Ans. 174 to 176 °C

Qu. For the compound shown here, O=C(O)CN1C(=O)C(=Cc2cc(OCc3ccccc3)ccc2OCc2ccccc2)SC1=S , give the reported melting point.
Ans. 196 to 198 °C

Qu. // lookup melting point for CCN(CC)C(=O)CN1C(=O)C(=Cc2cc(C(C)(C)C)c(O)c(C(C)(C)C)c2)SC1=S
Ans. 223 to 225 °C
